assay: ATG_Ets_CIS: Attagene CIS-FACTORIAL HepG2 Assay for human Erythroblast Transformation Specific (ETS) (AID 2282941); details: HepG2 ETS cis-reporter transcription, actives raise or lower the signal
Activity calls are given as the source filed them. Rule for the calls: active = hit-call score of the fitted dose curve at least 0.9, where 1 is the maximum; inactive = score below 0.9.
// classify into class 1 (active), class 0 (inactive)

# example entries with known answers
{"Compound": "C=CCOC(Cn1ccnc1)c1ccc(Cl)cc1Cl (centres undefined)", "Label": "class 0"}
{"Compound": "COc1nc(C)nc(NC(=O)NS(=O)(=O)c2ccccc2OCCCl)n1", "Label": "class 0"}
{"Compound": "CCOC(=O)COc1cc(-n2ncc(C(F)(F)F)c(C)c2=O)c(F)cc1Cl", "Label": "class 0"}
{"Compound": "Oc1ccc(C(c2ccc(O)cc2)C(Cl)(Cl)Cl)cc1", "Label": "class 0"}
{"Compound": "COC(=O)c1ccc(I)cc1S(=O)(=O)NC(=O)Nc1nc(C)nc(OC)n1", "Label": "class 0"}
{"Compound": "CC(C)(C)[C@@H](O)[C@@H](Cc1ccc(Cl)cc1)n1cncn1", "Label": "class 1"}

Problem: Write down the call the test reported for this compound. Item: COC(=O)c1cccc(C)c1S(=O)(=O)NC(=O)Nc1nc(OCC(F)(F)F)nc(N(C)C)n1
Result: class 0

Problem: Please answer likewise for CCN(CC)C(=O)c1cccc(C)c1
Result: class 0

Problem: Please answer likewise for S=C(S)NCCNC(=S)S.[Mn+2].[S-]C([S-])=NCCN=C([S-])[S-].[Zn+2]
Result: class 0

Problem: Please answer likewise for COC(=O)c1ccccc1C(=O)O
Result: class 0

Problem: Please answer likewise for O=C(O)c1ccccc1
Result: class 0

Problem: Please answer likewise for CCCCOC(=O)[C@@H](C)Oc1ccc(Oc2ccc(C(F)(F)F)cn2)cc1
Result: class 0

Problem: Please answer likewise for COc1c(Cl)ccc(Cl)c1C(=O)O
Result: class 0

Problem: Please answer likewise for CCOC(=O)NCCOc1ccc(Oc2ccccc2)cc1
Result: class 0

Problem: Please answer likewise for c1ccc(Nc2ccccc2)cc1
Result: class 0

Problem: Please answer likewise for COC(=O)CSc1cc(N=c2sc(=O)n3n2CCCC3)c(F)cc1Cl
Result: class 0

###

read-out: Monokine induced gamma interferon (MIG), CXCL9 (gene 4283); test: BSK_CASM3C_MIG: BioMAP Diversity Plus: CASM3C Assay for Monokine induced gamma interferon (MIG) Biomarker Activity (AID 2283048); conditions: primary human coronary artery smooth muscle cells; actives raise or lower the signal;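 note: MIG protein level measured by ELISA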
The source made the active and inactive calls. How the source made its calls: active means hit-call score of the fitted dose curve at least 0.9, where 1 is the maximum; inactive means score below 0.9.
// classify into active, inactive

{"Compound": "COC(=O)c1cccc(C)c1S(=O)(=O)NC(=O)Nc1nc(OCC(F)(F)F)nc(N(C)C)n1", "Label": "inactive"}

Problem: Write down the call the test reported for this compound. Item: COC(=O)c1ccc(CNS(C)(=O)=O)cc1S(=O)(=O)NC(=O)Nc1nc(OC)cc(OC)n1
Result: inactive

Problem: Please answer likewise for CCOC(=O)c1ccc(O)cc1
Result: inactive

Problem: Please answer likewise for COC(=O)CSc1cc(N=c2sc(=O)n3n2CCCC3)c(F)cc1Cl
Result: inactive

Problem: Please answer likewise for CCCCCCC(C)OC(=O)COc1nc(F)c(Cl)c(N)c1Cl (configuration not stated)
Result: active

###

experiment: CCTE_Simmons_MITO_inhib_resp_rate: CCTE's HepG2 Seahorse XF Respirometric Screening Assay at Inhibited Respiratory State [full ETC block], Simmons Lab (AID 2284006); conditions: actives raise or lower the signal
Calls of active or inactive are those of the source. Rule for the calls: active = hit-call score of the fitted dose curve at least 0.9, where 1 is the maximum; inactive = score below 0.9.
// classify into active, inactive

{"Molecule": "CCCCC(CC)CN1C(=O)C2C3C=CC(C3)C2C1=O (configuration not stated)", "Label": "inactive"}
{"Molecule": "CC(C)(c1ccc(O)cc1)c1ccc(O)cc1", "Label": "inactive"}
{"Molecule": "O=C(O)C1(C(=O)Nc2ccc(Cl)cc2Cl)CC1", "Label": "inactive"}

Problem: Write down the call the test reported for this molecule. Item: N#CSCSc1nc2ccccc2s1
Result: inactive

Problem: Please answer likewise for Oc1ccc(C(c2ccc(O)cc2)C(Cl)(Cl)Cl)cc1
Result: inactive

Problem: Please answer likewise for CCCCC(CC)COC(=O)c1ccccc1C(=O)O (configuration not stated)
Result: inactive

Problem: Please answer likewise for O=C(Nc1ccc([N+](=O)[O-])cc1Cl)c1cc(Cl)ccc1O
Result: active

Problem: Please answer likewise for O=C(c1ccc(O)cc1O)c1ccc(O)cc1O
Result: inactive

Problem: Please answer likewise for C=CCOC(Cn1ccnc1)c1ccc(Cl)cc1Cl (configuration not stated)
Result: inactive

Problem: Please answer likewise for CC(=O)[C@H]1CC[C@H]2[C@@H]3CCC4=CC(=O)CC[C@]4(C)[C@H]3CC[C@]12C
Result: inactive

Problem: Please answer likewise for Cc1nn(C)c(Oc2ccccc2)c1C=NOCc1ccc(C(=O)OC(C)(C)C)cc1
Result: inactive

Problem: Please answer likewise for CC(C)CCCCCCc1ccc(O)cc1
Result: inactive
